Attribute: Population Fragmented Nuclei (%)
System: U2OS
procedure_details: Multiplex assay against U2OS
Type: toxicity, cell-based
condition_set: human, 12 h, 1 µM, compound concentration 1 uM, replicate 1
API: value field is a number in %; no unit string.

Recorded results for 3 compounds are shown here.
compound	output_unit	Population Fragmented Nuclei (%)
COc1c(C)cc(NC(=O)c2nn(Cc3ccc(F)cc3)c3c2CN(C(=O)c2ccc[nH]2)C[C@]3(C)C(N)=O)cc1C	%	22
CSc1ccccc1N1CCN(CCCCCC(=O)NC2CCCc3ccccc32)CC1.Cl (stereo unspecified)	%	22
C[C@@H]1C[C@H]2[C@@H]3CCC4=CC(=O)C=C[C@]4(C)[C@@]3(F)[C@@H](O)C[C@]2(C)[C@@]1(O)C(=O)CO	%	21

Sample CC1(COc2ccc3c(c2)ncn3-c2ccc3cccc(N4CCC(N)CC4)c3n2)COC1 — what was its Population Fragmented Nuclei (%)?
36

Sample CN1CCN2c3ncccc3Cc3ccccc3C2C1 (stereo unspecified) — what was its Population Fragmented Nuclei (%)?
21

Sample C[C@H](NC(=O)c1c(C(F)F)nn(C)c1Oc1cccc(C(F)(F)F)c1)c1ccc(C(=O)O)cc1 — what was its Population Fragmented Nuclei (%)?
27

Sample CCOc1c2c(c(OCC)c3ncccc13)CN(c1ccc(CS(=O)(=O)NC(=O)Cc3ccccc3OC)cc1C)C2=O — what was its Population Fragmented Nuclei (%)?
22

Sample O=C(NCC(=O)N1CC[C@H](N[C@H]2CC[C@@](O)(c3ccc(-c4ncccn4)cn3)CC2)C1)c1cccc(C(F)(F)F)c1 — what was its Population Fragmented Nuclei (%)?
25

Sample COc1cc(C(=O)N(CCCc2ccccc2)Cc2ccc(CC(=O)O)cc2)cc(OC)c1C — what was its Population Fragmented Nuclei (%)?
29

Sample CC[C@H]1OC(=O)[C@H](C)[C@@H](O[C@H]2C[C@@](C)(OC)[C@@H](O)[C@H](C)O2)[C@H](C)[C@@H](O[C@@H]2O[C@H](C)C[C@H](N(C)C)[C@H]2O)[C@@]2(C)CC(C)=C(O2)[C@H](C)[C@@H](O)[C@]1(C)O — what was its Population Fragmented Nuclei (%)?
19

---

Test system: U2OS
procedure_details: Multiplex assay against U2OS
Assay type: toxicity, cell-based
condition_set: human, 12 h, 1 µM, compound concentration 1 uM, replicate 1
metric_name: Population Apoptotic (%)
Field note: include the unit after the figure.

smiles_notation	Population Apoptotic (%)
COc1cc(NC(=O)CCN2CCC(OC(=O)Nc3ccccc3-c3ccccc3)CC2)c(Cl)cc1CNC[C@H](O)c1ccc(O)c2[nH]c(=O)ccc12	68%
COc1c(C)cc(NC(=O)c2nn(Cc3ccc(F)cc3)c3c2CN(C(=O)c2ccc[nH]2)C[C@]3(C)C(N)=O)cc1C	65%
CC[C@H]1OC(=O)[C@H](C)[C@@H](O[C@H]2C[C@@](C)(OC)[C@@H](O)[C@H](C)O2)[C@H](C)[C@@H](O[C@@H]2O[C@H](C)C[C@H](N(C)C)[C@H]2O)[C@@]2(C)CC(C)=C(O2)[C@H](C)[C@@H](O)[C@]1(C)O	50%

Pending compound:
Sample N#Cc1c(N)nc(SCc2csc(-c3ccc(Cl)cc3)n2)c(C#N)c1-c1ccc(OCCO)cc1 — what was its Population Apoptotic (%)?
78%

---

Tested on: HEK-293T
procedure_details: Multiplex assay against HEK293T
Format: toxicity, cell-based
condition_set: human, 24 h, 10 µM, compound concentration 10 uM, replicate 2
Classify by measured Total Cell Count: y if it is equal to or exceeds 400, n if it is smaller.

Example entries and their recorded answers appear below.
compound	assigned_label
CC[C@H]1OC(=O)[C@H](C)[C@@H](O[C@H]2C[C@@](C)(OC)[C@@H](O)[C@H](C)O2)[C@H](C)[C@@H](O[C@@H]2O[C@H](C)C[C@H](N(C)C)[C@H]2O)[C@@]2(C)CC(C)=C(O2)[C@H](C)[C@@H](O)[C@]1(C)O	n
O=C1COc2nccc(-c3ccccc3F)c2CN1Cc1cc(C(F)(F)F)cc(C(F)(F)F)c1	y
CN(C)c1ccnc2sc3c(=O)n(N4CCCCCC4)cnc3c12	n
Cc1ccc(/C(=C\CN2CCCC2)c2ccccn2)cc1	y
CN1CCN2c3ncccc3Cc3ccccc3C2C1 (stereo not drawn)	n
Cc1ccccc1C(=O)Nc1ccc(C(=O)N2CCCC(N(C)C)c3ccccc32)cc1.Cl (stereo not drawn)	n
Cc1nc2ccc(Oc3ccc(F)cc3)cc2c(=O)n1C[C@H]1CCCN(C(C)C)C1.Cl	n
CCNC1(C(N)=O)CCN(c2ncnc3c2nc(-c2ccccc2Cl)n3-c2ccc(Cl)cc2)CC1	n
C[C@@H]1C[C@H]2[C@@H]3CCC4=CC(=O)C=C[C@]4(C)[C@@]3(F)[C@@H](O)C[C@]2(C)[C@@]1(O)C(=O)CO	y
COc1cc(C(=O)N(CCCc2ccccc2)Cc2ccc(CC(=O)O)cc2)cc(OC)c1C	y

Please tell me: is the compound Cc1ccc(C(C)(O)c2nc3ccccc3s2)c(C)c1 (stereo not drawn) at or over 400 in terms of Total Cell Count?
n

Please tell me: is the compound CN1CCN(c2nc3cc(C(F)(F)F)ccc3n3cccc23)CC1.O=C(O)/C=C\C(=O)O.O=C(O)/C=C\C(=O)O at or over 400 in terms of Total Cell Count?
n

---

Tested on: HEK-293T
procedure_details: Multiplex assay against HEK293T
Assay type: toxicity, cell-based
condition_set: human, 48 h, 10 µM, compound concentration 10 uM, replicate 2
metric_name: Population Apoptotic (%)
API: value field is a number in %; no unit string.

Recorded results for 6 compounds are shown here.
compound	Population Apoptotic (%)
O=C(O)c1cc2ccccc2c(Cc2c(O)c(C(=O)O)cc3ccccc23)c1O	36
Cc1ccccc1C(=O)Nc1ccc(C(=O)N2CCCC(N(C)C)c3ccccc32)cc1.Cl (centres undefined)	63
CN1CCN2c3ncccc3Cc3ccccc3C2C1 (centres undefined)	30
CCCN1CCC[C@@H]2Cc3n[nH]cc3C[C@H]21.Cl [QUINPIROLE HYDROCHLORIDE]	33
N#Cc1c(N)nc(SCc2csc(-c3ccc(Cl)cc3)n2)c(C#N)c1-c1ccc(OCCO)cc1	63
CN(C)CCCc1cc(C(=O)Nc2ccc(-c3ccncc3)cc2)ccc1O.Cl.Cl	58

Sample CNC[C@H](O)c1ccc(O)c(O)c1 [EPINEPHRINE] — what was its Population Apoptotic (%)?
69

Sample O=C(NCC(=O)N1CC[C@H](N[C@H]2CC[C@@](O)(c3ccc(-c4ncccn4)cn3)CC2)C1)c1cccc(C(F)(F)F)c1 — what was its Population Apoptotic (%)?
43

Sample CCOc1c2c(c(OCC)c3ncccc13)CN(c1ccc(CS(=O)(=O)NC(=O)Cc3ccccc3OC)cc1C)C2=O — what was its Population Apoptotic (%)?
33

---

Tested on: HEK-293T
procedure_details: Multiplex assay against HEK293T
Assay type: toxicity, cell-based
condition_set: human, 48 h, 1 µM, compound concentration 1 uM, replicate 1
metric_name: Population Tubulin-Different-Phenotype (%)
API: value field is a number in %; no unit string.

compound	reported_measurement
O=C(NCC(=O)N1CC[C@H](N[C@H]2CC[C@@](O)(c3ccc(-c4ncccn4)cn3)CC2)C1)c1cccc(C(F)(F)F)c1	9

Sample N#Cc1c(N)nc(SCc2csc(-c3ccc(Cl)cc3)n2)c(C#N)c1-c1ccc(OCCO)cc1 — what was its Population Tubulin-Different-Phenotype (%)?
23

---

System: Fibroblast
procedure_details: Multiplex assay against human fibroblast
Format: toxicity, cell-based
condition_set: 12 h, 10 µM, compound concentration 10 uM, replicate 1
Attribute: Population Apoptotic (%)
API: value field is a number in %; no unit string.

Recorded results for 6 compounds are shown here.
smiles_notation	reported_measurement
C[C@H]1[C@H]2CC[C@H]3[C@@H]4CC=C5C[C@@H](N(C)C)CC[C@]5(C)[C@H]4CC[C@]23CN1C	37
O=C(O)Cc1ccccc1Nc1c(Cl)cccc1Cl	32
CCCC(CCC)C(=O)O	30
COc1c(C)cc(NC(=O)c2nn(Cc3ccc(F)cc3)c3c2CN(C(=O)c2ccc[nH]2)C[C@]3(C)C(N)=O)cc1C	47
CCNC1(C(N)=O)CCN(c2ncnc3c2nc(-c2ccccc2Cl)n3-c2ccc(Cl)cc2)CC1	57
CC(C)(C)c1ccc(S(=O)(=O)Nc2ccc(Cl)cc2C(=O)c2cc[n+]([O-])cc2)cc1	59

Pending compound:
Sample C[C@H](NC(=O)c1c(C(F)F)nn(C)c1Oc1cccc(C(F)(F)F)c1)c1ccc(C(=O)O)cc1 — what was its Population Apoptotic (%)?
45

---

Attribute: Population Membrane Permeable-Phenotype (%)
Tested on: Fibroblast
procedure_details: Multiplex assay against human fibroblast
Assay type: toxicity, cell-based
condition_set: 24 h, 10 µM, compound concentration 10 uM, replicate 1
API: value field is a number in %; no unit string.

compound	reported_measurement
CN1CCN2c3ncccc3Cc3ccccc3C2C1 (configuration not stated) [MIRTAZAPINE]	0
Cc1ccccc1C(=O)Nc1ccc(C(=O)N2CCCC(N(C)C)c3ccccc32)cc1.Cl (configuration not stated)	0
O=C(O)Cc1ccccc1Nc1c(Cl)cccc1Cl [DICLOFENAC]	0

Sample O=C(O)c1cc2ccccc2c(Cc2c(O)c(C(=O)O)cc3ccccc23)c1O [PAMOIC ACID] — what was its Population Membrane Permeable-Phenotype (%)?
1
